The compounds listed here are annotated with their z-score.
test: FRG1 expression reporter modulators in myotubes – cell-based, C2C12 myotubes, firefly/Renilla luciferase, luminescence, FRG1 inhibition for FSHD, primary screen (AID 1084); details: FRG1 promoter luciferase, higher = more signal, called active from +8 up or from −8 down
PARAMETER: z-score

{"columns": ["COMPOUND", "PARAMETER", "OBSERVED_VALUE"],
 "data": [
  ["CCCC[C@H]1C[C@@H]1[C@@H]1N(C(C)=O)[C@H](c2cccc(OC)c2)CC12CC2", "z-score", 1.8],
  ["CC(C)NC(=O)[C@@]1(c2ccc([N+](=O)[O-])cc2)CC(=O)N(CC23CC4CC(CC(C4)C2)C3)[C@@H]1c1ccc(CO)cc1", "z-score", -3.57],
  ["C=CCN1Cc2ccccc2[C@H]2OC(c3ccc(OCCCO)cc3)=N[C@@]2(CCS(=O)(=O)c2ccccc2)C1=O", "z-score", -0.908],
  ["O=C(NCC(O)CO)C1N=C(c2ccc(OCCCO)cc2)N(c2ccccc2)O1 (stereo not drawn)", "z-score", 3.24],
  ["C[N+](C)(C)CCCCNC(=O)[C@H]1C[C@H]2C(=O)N[C@@H](Cc3ccccc3)C(=O)N2[C@H]1c1cccc(OCCO)c1", "z-score", 2.28],
  ["COc1ccc(C(O)C2C=CC3C(=O)N(C)C(=O)C3N2N(c2ccccc2)c2ccccc2)cc1 (stereo not drawn)", "z-score", 0.57],
  ["CCCCC(O)C1C=CC2C(=O)N(c3ccccc3)C(=O)C2N1Nc1ccc(C#N)cc1 (stereo not drawn)", "z-score", 0.662],
  ["COc1ccc([Si](C)(C)[C@@H]2[C@@H](CC(=O)N3CCC[C@H]3CO)O[C@]3(C(=O)N(Cc4cccc(N5CCCCC5=O)c4)c4ccccc43)[C@H]2C)cc1", "z-score", -0.0792]
]}

###

target: Albumin (Bos taurus); experiment: compounds binding labelled BSA control protein – biochemical, small-molecule microarray, Alexa647 label, 635/667 nm fluorescence, artefact control for SMM control protein annotation, profiling panel (AID 1118); details: BSA-A647 binding, fluorescence 635 nm, higher = more signal;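 note: score merges 667 nm emission intensity and signal-to-noise per printed compound spot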
The compounds listed here are annotated with their composite z-score.

{"columns": ["CHEM_SMILES", "TARGET_ENTITY", "composite z-score"],
 "data": [
  ["[N-]=[N+]=Nc1ccccc1C[C@]1(C(=O)N2CCOCC2)N=C(c2ccc(OCCCO)cc2)O[C@H]1c1ccccc1N=[N+]=[N-]", "Albumin (Bos taurus)", 0.832],
  ["COC(=O)[C@H](Cc1ccccc1)N1CC2=CCCC=C[C@@H]2[C@H]1[C@H](O)Cc1ccccc1", "Albumin (Bos taurus)", 0.0618],
  ["O=C(NCCN1CCOCC1)[C@@H]1c2ccccc2C(=O)N(Cc2ccccc2C(F)(F)F)[C@H]1c1ccc(CO)cc1", "Albumin (Bos taurus)", 0.0089],
  ["C=CCNC(=O)[C@H]1[C@@H]2C(=O)O[C@@H](c3ccccc3)[C@@H](c3ccccc3)N2[C@@H](c2ccc(OCCO)cc2)[C@]12C(=O)Nc1ccc(C#CC3(O)CCCCCC3)cc12", "Albumin (Bos taurus)", 0.483]
]}

###

test: calcein-AM signal in unstimulated myeloma cells – cell-based, calcein-AM fluorescence, 48 h, PK04 Diversity Set, profiling panel (AID 1166); conditions: RPMI8226 myeloma viability, higher = more signal;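 note: cells grown under basal conditions without added stimulus; test concentration not given here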
The molecules listed here are annotated with their z-score.

{"columns": ["CHEM_SMILES", "z-score"],
 "data": [
  ["COc1ccc(C(=O)Nc2cccc(CN3C(=O)[C@]4(O[C@H](CC(=O)N5Cc6ccccc6C[C@H]5CO)[C@@H]([Si](C)(C)c5ccc(OC)cc5)[C@@H]4C)c4ccccc43)c2)cc1", -2.56],
  ["C[C@]1(C(=O)O)c2ccccc2C(=O)N(Cc2cc(F)cc(C(F)(F)F)c2)[C@H]1c1ccc(CO)cc1", 0.792],
  ["COc1ccc(C(=O)Nc2ccc3c(c2)[C@@]2(O[C@H](CCO)[C@@H]([Si](C)(C)c4ccc(OC)cc4)[C@@H]2C)C(=O)N3Cc2ccccc2)cc1", -4.3]
]}
